- System: muMax20 (Max(13-93) K31hArg/K57hArg, M65Nle)
- METHOD: PBM 8-mer E-score (E-score (rank enrichment, -0.5 to 0.5)); higher = stronger preferential binding
In all, about 33,000 sequences were measured (“E-score (rank enrichment, -0.5 to 0.5)”: median about -0.0068, highest 2% from about 0.24 on). This is one part of a sample in which the highest values are shown more often than they occur.
The class of a record is decided solely by its measured PBM 8-mer E-score; consult one: < 0.02; two: ≥ 0.02 and < 0.2; three: ≥ 0.2

1) ACACGCGG :: three
2) AATAAAGG :: two
3) ATAAGGTC :: three
4) TCTAATAA :: three
5) CTTTCGGC :: one
6) ATGTGTTC :: one
7) ATTTAATA :: three
8) ATGTGTAC :: two
9) AATGACTC :: two
10) GAGCACCC :: one
11) AATAAAAT :: two
12) ACTTTGAT :: two
13) ATGTGTGA :: two
14) AATTAACA :: three
15) GATTAAGA :: two
16) TCGAAACA :: one
17) AAGTTATA :: two
18) CCAGAACA :: two
19) GGTAAGAA :: two
20) AGCTTAAC :: one
21) GTTGAACA :: two
22) ACCGTCAA :: one
23) ACGCCATA :: two
24) CCACGCGC :: two
25) CTAAGGTA :: two
26) GTGTTATA :: three
27) TAGTTATA :: three
28) AGTATATC :: one
29) GTCTAGTA :: three
30) CTCTTCGA :: two
31) AGGCGCGC :: two
32) TCTAGCCA :: one
33) AGACGGAT :: two
34) GAAACACA :: two
35) CGTATCTA :: one
36) CATGCAAC :: three
37) GCGGAACC :: one
38) GATTAACA :: two
39) AGCTCCTA :: one
40) CCTAATAA :: two
41) TATTAAAA :: three
42) AAAAATAA :: two
43) ACACGCGA :: two
44) CACTCGAG :: one
45) CGCGACCA :: one
46) ACTCCATC :: one
47) ACTAATAA :: three
48) ATAAAAAA :: two
49) CGCTCTCC :: one
50) GATGCTGC :: one
51) GTTCTTGA :: two
52) AATTAATA :: three
53) CGGTATGA :: one
54) AGTATATG :: two
55) AAACGCGT :: two
56) AATGCATG :: three
57) TGTGAAAA :: three
58) ATAAGGTA :: three
59) AGCCGATG :: one
60) AATTAAGC :: two
61) GCCCCTGA :: one
62) ATCTGACG :: one
63) ATATGCTC :: two
64) ACAATGCG :: two
65) GGTGAAAA :: one
66) AGTATATA :: three
67) GATAAGCC :: one
68) AATACTAA :: two

Origin of values: the supplement of paper PMC12636033
